Molecular target: PKM2 (Homo sapiens, UniProt P14618)
Sequence (P14618 whole entry): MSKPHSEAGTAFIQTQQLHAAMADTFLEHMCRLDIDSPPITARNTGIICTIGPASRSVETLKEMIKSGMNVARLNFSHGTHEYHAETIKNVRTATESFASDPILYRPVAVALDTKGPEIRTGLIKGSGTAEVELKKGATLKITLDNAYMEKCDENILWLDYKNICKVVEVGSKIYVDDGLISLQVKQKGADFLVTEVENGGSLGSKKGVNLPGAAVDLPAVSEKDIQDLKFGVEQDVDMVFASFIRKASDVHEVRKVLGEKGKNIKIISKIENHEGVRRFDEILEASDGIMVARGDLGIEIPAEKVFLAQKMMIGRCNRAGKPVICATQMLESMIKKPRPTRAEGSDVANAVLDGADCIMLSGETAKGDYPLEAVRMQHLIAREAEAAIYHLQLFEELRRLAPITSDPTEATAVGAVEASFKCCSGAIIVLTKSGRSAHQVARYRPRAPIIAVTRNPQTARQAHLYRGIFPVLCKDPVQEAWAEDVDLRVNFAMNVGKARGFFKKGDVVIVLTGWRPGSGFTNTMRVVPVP
Assay: PKM2 Biochemical Assay
Conditions: % maximum response in a biochemical assay as compared with Fructose 1,6-bisphosphate
measurement-kind: Max. Resp.

>>> print(df.to_string())
                                    compound  readout_value
 0  O=C(c1cc(Br)n[nH]1)N(CCC1CCS(=O)(=O)CC1)Cc1ccccc1F            98%
 1  O=C(c1cc(C(F)(F)F)n[nH]1)N(CCC1CCSCC1)Cc1ccccc1F            95%
 2  O=C(c1cc(C(F)(F)F)n[nH]1)N(CCC1CCS(=O)(=O)C1)Cc1cccc(F)c1F (centres unmarked)           103%
 3  O=C(c1cc(C(F)(F)F)n[nH]1)N(Cc1ccccc1Cl)CC1CCCN1 (centres unmarked)            85%
 4  O=C(c1cc(C(F)(F)F)n[nH]1)N(CCN1CCCC1)Cc1c(Cl)cccc1Cl           100%
 5  CCCN(CC)CCN(Cc1c(N)cccc1Cl)C(=O)c1cc(C(F)(F)F)n[nH]1           100%
 6  O=C(c1cc(C(F)(F)F)n[nH]1)N(CCN1CCCC1)Cc1cccc2nc[nH]c12           100%
 7  O=C(c1cc(C(F)(F)F)n[nH]1)N(CCN1CCC(O)CC1)Cc1ccccc1Cl           100%
 8  CC1CCCN(CCN(Cc2ccccc2Cl)C(=O)c2cc(C(F)(F)F)n[nH]2)C1 (centres unmarked)           100%
 9  CCN(CC)CCN(Cc1cccc(Cl)c1Cl)C(=O)c1cc(C(F)(F)F)n[nH]1           100%
10  Nc1cccc(CN(CCN2CCCCCC2)C(=O)c2cc(C(F)(F)F)n[nH]2)c1F           100%

Source: patent US10766865B2
